targetOrSystem: T1, Human CD3eg linker (human)
T1 construct: Single chain: CD3 epsilon and gamma subunits joined by a 29-mer linker, Flag-tag at the C-terminus; also called recombinant human CD3
T1 chain: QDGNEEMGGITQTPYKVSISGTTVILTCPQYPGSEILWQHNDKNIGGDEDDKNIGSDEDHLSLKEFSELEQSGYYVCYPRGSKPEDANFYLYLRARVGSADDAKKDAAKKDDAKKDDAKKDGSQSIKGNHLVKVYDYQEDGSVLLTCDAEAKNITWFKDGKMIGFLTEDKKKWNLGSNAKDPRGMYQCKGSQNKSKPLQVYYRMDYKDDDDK
testMethodNotes: SPR Biacore T200, 25 C, Ab captured on anti-human Fc, antigen as analyte;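 note: Anti-Fc amine-coupled to a CM4 chip, recombinant human CD3 flowed over in 20 mM ACES buffer pH 7.4 with 150 mM NaCl and 0.05% Tween 20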
Binary call on koff: criterion met from 0.02 s⁻¹ upward, criterion not met beneath that.

binder: H183/L072 (antibody, V domains shown, Dual-Fab antibody (Dual-Ig), bivalent IgG; also called parental Dual-Fab H183L072; dBBDu183H/dBBDu072L) VH: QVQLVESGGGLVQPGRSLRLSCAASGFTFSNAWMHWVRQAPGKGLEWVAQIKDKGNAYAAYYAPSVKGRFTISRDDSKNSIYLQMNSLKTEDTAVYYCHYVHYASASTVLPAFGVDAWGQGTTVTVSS VL: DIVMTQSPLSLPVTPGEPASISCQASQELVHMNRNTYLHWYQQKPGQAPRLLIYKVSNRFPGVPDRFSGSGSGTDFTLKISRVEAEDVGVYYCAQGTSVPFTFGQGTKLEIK
cat: criterion not met

binder: H1651L0581 (antibody, V domains shown, Dual-Ig, IgG; also called dBBDu183H1651/dBBDu072L0581) VH: QVQLVESGGGLVQPGRSLRLSCAASGFVFSNVWFHWVRQAPGKGLEWVAQIKDKYNAYADYYAPSVEGRFTISRDDSKNSIYLQMNSLKTEDTAVYYCHYVHYASASTLLPAEGVDAWGQGTTVTVSS VL: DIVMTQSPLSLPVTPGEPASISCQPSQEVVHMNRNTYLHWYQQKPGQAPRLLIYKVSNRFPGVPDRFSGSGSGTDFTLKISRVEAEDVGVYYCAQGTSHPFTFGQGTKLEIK
cat: criterion met

binder: H1673L0581 (antibody, V domains shown, Dual-Ig, IgG; also called dBBDu183H1673/dBBDu072L0581) VH: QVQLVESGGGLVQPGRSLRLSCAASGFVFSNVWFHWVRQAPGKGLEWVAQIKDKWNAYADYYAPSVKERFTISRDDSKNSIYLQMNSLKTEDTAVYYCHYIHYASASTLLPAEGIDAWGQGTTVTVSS VL: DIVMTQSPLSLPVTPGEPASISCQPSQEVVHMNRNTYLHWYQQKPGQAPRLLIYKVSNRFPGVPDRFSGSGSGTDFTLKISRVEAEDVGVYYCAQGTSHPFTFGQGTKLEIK
cat: criterion not met

binder: H1649L0943 (antibody, V domains shown, Dual-Ig, IgG; also called dBBDu183H1649/dBBDu072L0943) VH: QVQLVESGGGLVQPGRSLRLSCAASGFVFSNVWFHWVRQAPGKGLEWVAQIKDKYNAYADYYAPSVKERFTISRDDSKNSIYLQMNSLKTEDTAVYYCHYVHYASASTLLPAEGVDAWGQGTTVTVSS VL: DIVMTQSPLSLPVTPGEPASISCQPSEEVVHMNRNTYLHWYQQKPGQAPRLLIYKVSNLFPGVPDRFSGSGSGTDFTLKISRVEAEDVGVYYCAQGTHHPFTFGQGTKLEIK
cat: criterion met

binder: H1673L0943 (antibody, V domains shown, Dual-Ig, IgG; also called dBBDu183H1673/dBBDu072L0943) VH: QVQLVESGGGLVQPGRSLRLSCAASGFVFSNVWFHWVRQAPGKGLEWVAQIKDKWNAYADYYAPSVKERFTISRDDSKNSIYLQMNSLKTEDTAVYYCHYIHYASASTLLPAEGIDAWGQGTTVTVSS VL: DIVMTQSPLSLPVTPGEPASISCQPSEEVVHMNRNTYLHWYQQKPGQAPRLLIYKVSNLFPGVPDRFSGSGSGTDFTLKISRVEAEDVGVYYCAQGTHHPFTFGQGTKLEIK
cat: criterion not met

binder: H2591L0581 (antibody, V domains shown, Dual-Ig, IgG; also called H2591L581; dBBDu183H2591/dBBDu072L0581) VH: QVQLVESGGGLVQPGRSLRLSCAASGFKFSNVWFHWVRQAPGKGLEWVAQIKDYYNAYAGYYHPSVKGRFTISRDDSKNSIYLQMNSLKTEDTAVYYCHYVHYAAASTLLPAEGVDAWGQGTTVTVSS VL: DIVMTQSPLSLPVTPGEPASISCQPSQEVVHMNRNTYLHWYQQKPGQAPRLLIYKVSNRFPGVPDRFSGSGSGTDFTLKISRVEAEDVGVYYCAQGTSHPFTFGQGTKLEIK
cat: criterion met

binder: H1649L0581 (antibody, V domains shown, Dual-Ig, IgG; also called dBBDu183H1649/dBBDu072L0581) VH: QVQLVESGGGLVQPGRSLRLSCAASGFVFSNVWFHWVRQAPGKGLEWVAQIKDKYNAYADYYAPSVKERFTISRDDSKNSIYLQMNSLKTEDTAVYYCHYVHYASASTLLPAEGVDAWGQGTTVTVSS VL: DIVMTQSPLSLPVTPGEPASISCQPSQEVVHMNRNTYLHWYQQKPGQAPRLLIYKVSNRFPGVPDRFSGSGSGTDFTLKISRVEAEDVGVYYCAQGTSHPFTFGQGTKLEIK
cat: criterion met

binder: H1610L0939 (antibody, V domains shown, Dual-Ig, IgG; also called H1610L939; dBBDu183H1610/dBBDu072L0939) VH: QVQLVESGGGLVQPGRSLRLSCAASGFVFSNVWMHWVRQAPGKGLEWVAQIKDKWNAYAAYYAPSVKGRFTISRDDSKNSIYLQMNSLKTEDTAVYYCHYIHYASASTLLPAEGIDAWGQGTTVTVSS VL: DIVMTQSPLSLPVTPGEPASISCQPSQEVVHMNRNTYLHWYQQKPGQAPRLLIYKVSNVFPGVPDRFSGSGSGTDFTLKISRVEAEDVGVYYCAQGTHHPFTFGQGTKLEIK
cat: criterion not met

binder: H2594L0581 (antibody, V domains shown, Dual-Ig, IgG; also called H2594L581; dBBDu183H2594/dBBDu072L0581) VH: QVQLVESGGGLVQPGRSLRLSCAASGFKFSNVWFHWVRQAPGKGLEWVAQIKDYYNAYAGYYHPSVKGRFTISRDDSKNSIYLQMNSLKTEDTAVYYCHYVHYAAASQLLPAEGVDAWGQGTTVTVSS VL: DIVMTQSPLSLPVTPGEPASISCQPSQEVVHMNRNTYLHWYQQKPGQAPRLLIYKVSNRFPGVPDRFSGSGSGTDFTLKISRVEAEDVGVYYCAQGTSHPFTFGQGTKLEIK
cat: criterion met

binder: H1610L0581 (antibody, V domains shown, Dual-Ig, IgG; also called H1610L581; dBBDu183H1610/dBBDu072L0581) VH: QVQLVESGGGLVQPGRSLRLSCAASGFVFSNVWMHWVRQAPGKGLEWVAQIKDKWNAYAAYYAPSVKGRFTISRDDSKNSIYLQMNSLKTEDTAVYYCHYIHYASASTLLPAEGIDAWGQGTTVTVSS VL: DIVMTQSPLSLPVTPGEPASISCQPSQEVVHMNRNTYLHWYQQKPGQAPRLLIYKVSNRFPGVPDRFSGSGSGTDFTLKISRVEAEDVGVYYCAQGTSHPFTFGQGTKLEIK
cat: criterion not met
